Biological target: recombinant human serotonin receptor 5-HT2A (Homo sapiens)
Construct: expressed in transfected cells; method B: loaded with Ca2+ dye
Sequence (P28223 whole entry): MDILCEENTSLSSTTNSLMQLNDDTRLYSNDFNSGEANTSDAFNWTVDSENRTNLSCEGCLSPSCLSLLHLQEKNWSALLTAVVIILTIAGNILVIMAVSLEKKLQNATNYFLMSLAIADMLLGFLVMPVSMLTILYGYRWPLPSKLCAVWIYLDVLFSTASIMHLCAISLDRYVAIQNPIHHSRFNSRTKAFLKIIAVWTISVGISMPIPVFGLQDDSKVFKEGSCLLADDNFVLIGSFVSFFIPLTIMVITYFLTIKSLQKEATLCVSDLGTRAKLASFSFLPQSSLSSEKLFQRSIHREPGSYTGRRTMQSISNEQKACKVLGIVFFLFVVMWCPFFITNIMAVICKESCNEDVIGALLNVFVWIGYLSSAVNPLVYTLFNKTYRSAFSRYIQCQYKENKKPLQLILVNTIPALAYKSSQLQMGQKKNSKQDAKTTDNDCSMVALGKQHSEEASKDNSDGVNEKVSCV
Assay: 5-HT2A antagonist Ca2+ assay in CHO-K1 cells (method A aequorin luminescence / method B FLIPR fluorescence)
Type: cell-based
Details: antagonist mode vs EC80 of reference agonist, method A or B, read-out: 5HT2A IC50
Property: pIC50; scope: individual compounds
Just so you know, pIC50 here is -log10 of the concentration in molar units; reply with that number alone.

> print(dat)
                                   compound  endpoint  observed.measurement
1  COc1ccccc1O[C@H]1CCN(CCN2CCc3ccccc3C2=O)[C@@H]1C     pIC50                  7.70

Asked: Provide pIC50, recorded with recombinant human serotonin receptor 5-HT2A (Homo sapiens), of N#Cc1ccc(OC2CCN(CC3CCOc4ccccc43)CC2)cc1 (centres unmarked)
Given back: 6.51

Asked: Please tell me the measured pIC50 for COc1ccc2c(c1)[C@H](CN1C[C@@H]3CC[C@H]1CN3c1ccccc1)CC2 (single isomer, unassigned) ; system: recombinant human serotonin receptor 5-HT2A (Homo sapiens).
Given back: 6.37

Asked: Give pIC50; test system recombinant human serotonin receptor 5-HT2A (Homo sapiens); compound O=C1c2cc(Cl)ccc2CN1CCN1CCC(Oc2ccc(F)cc2)CC1
Given back: 6.74

Asked: Fetch value of pIC50 on recombinant human serotonin receptor 5-HT2A (Homo sapiens) for O[C@H](CO[C@H]1CCCc2ccccc21)CN1CCN(Cc2ccccc2)CC1 .
Given back: 5.44
